Values were extracted from ChEMBL document CHEMBL1909046.

- Target Entity: UniProt Q690N0
- Sequence (Q690N0 whole entry): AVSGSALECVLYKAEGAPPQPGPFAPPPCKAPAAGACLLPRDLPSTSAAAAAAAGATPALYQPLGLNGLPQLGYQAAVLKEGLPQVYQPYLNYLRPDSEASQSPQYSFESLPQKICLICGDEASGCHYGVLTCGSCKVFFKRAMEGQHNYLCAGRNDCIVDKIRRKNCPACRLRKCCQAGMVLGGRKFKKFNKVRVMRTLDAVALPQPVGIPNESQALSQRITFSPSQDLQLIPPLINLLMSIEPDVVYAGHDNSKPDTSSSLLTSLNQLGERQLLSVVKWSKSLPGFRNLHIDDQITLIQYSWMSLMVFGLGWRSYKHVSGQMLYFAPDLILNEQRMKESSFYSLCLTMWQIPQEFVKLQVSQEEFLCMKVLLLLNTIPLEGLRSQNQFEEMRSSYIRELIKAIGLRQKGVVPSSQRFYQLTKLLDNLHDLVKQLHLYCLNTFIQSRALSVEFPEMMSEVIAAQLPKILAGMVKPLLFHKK
- Assay Overview: DRUGMATRIX: Progesterone radioligand binding (ligand: [3H] R-5020)
- Format: tissue-based, Uterus
- Condition Parameters: Not Active = under 50% inhibition at 10 µM
Observation Type: IC50

{"columns": ["Compound", "Target Entity", "IC50"],
 "data": [
  ["COC(=O)c1ccc(O)cc1", "UniProt Q690N0", "Not Active"],
  ["C=C1CC[C@H](O)C/C1=C/C=C1\\CCC[C@]2(C)[C@@H]([C@H](C)/C=C/[C@H](C)C(C)C)CC[C@@H]12", "UniProt Q690N0", "Not Active"],
  ["COc1ccc2c(c1)c(CC(=O)OCC(=O)O)c(C)n2C(=O)c1ccc(Cl)cc1", "UniProt Q690N0", "Not Active"],
  ["CN(C)CCCN1c2ccccc2CCc2ccc(Cl)cc21", "UniProt Q690N0", "Not Active"],
  ["C=C1C(=O)O[C@@H]2C3O[C@]3(C)CC/C=C(\\C)CC[C@@H]12 (stereo not given in full)", "UniProt Q690N0", "Not Active"]
]}

Please give the documented IC50 of CC(C)(O)c1ccccc1CC[C@@H](SCC1(CC(=O)O)CC1)c1cccc(/C=C/c2ccc3ccc(Cl)cc3n2)c1
Not Active

Please give the documented IC50 of Clc1ccc(C(c2ccccc2Cl)C(Cl)Cl)cc1 (stereo not given)
Not Active

Please give the documented IC50 of O=c1cc(-c2ccccc2)oc2c1ccc1ccccc12
Not Active

* * *

- Target Entity: C-C chemokine receptor type 2 (Homo sapiens, UniProt P41597); further: in other assays of this panel Not Active means under 50% inhibition at 10 µM
- Sequence (P41597 whole entry): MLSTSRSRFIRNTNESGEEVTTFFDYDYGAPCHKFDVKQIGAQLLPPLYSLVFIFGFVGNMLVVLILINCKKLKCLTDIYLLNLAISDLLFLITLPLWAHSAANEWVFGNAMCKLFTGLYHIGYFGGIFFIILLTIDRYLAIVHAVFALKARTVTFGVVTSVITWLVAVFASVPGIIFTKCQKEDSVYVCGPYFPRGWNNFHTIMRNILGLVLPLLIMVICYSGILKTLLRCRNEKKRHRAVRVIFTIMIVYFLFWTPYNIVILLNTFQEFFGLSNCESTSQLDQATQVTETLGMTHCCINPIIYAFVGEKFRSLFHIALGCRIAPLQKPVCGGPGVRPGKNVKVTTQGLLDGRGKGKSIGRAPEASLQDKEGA
- Type: cell membranes, CHO-K1, Membrane
- Condition Parameters: read-out: IC50
Observation Type: pIC50
Expect pIC50 as a plain number equal to -log10 of the molar concentration.

Please give the documented pIC50 of COC(=O)C1=C(C)NC(C)=C(C(=O)OC)C1c1ccccc1[N+](=O)[O-]
5.66

* * *

- Assay Overview: DRUGMATRIX: GABAA, Muscimol, Central radioligand binding (ligand: [3H] Muscimol)
- Format: cell membranes, Rattus norvegicus, Wistar, Brain, Membrane
- Condition Parameters: Not Active = under 50% inhibition at 10 µM; read-out: IC50
Observation Type: pIC50
Expect pIC50 as a plain number equal to -log10 of the molar concentration.

Please give the documented pIC50 of CN1[C@@H]2CC[C@H]1C[C@@H](OC(=O)c1c[nH]c3ccccc13)C2 [TROPISETRON]
5.52

* * *

- Assay Overview: DRUGMATRIX: Calcium Channel Type L, Phenylalkylamine radioligand binding (ligand: [3H] (-)-Desmethoxyverapamil (D-888))
- Type: cell membranes, Rattus norvegicus, Wistar, Brain, Membrane
- Condition Parameters: Not Active = under 50% inhibition at 10 µM
Where a SMILES comes first, the peptide text is derived from it. Bridges are numbered along the chain shown (N, C = ends). [ ]: non-standard residue; d: D form. The star is where a group is joined. Ileψ(thiazoline)Cys = CC[C@H](C)[C@H](N)C1=N[C@H](C(=O)*)CS1; dOrn = NCCC[C@@H](N)C(=O)O

{"columns": ["Compound", "IC50"],
 "data": [
  ["CCCCCCCCCc1ccc(O)cc1", "Not Active"],
  ["CC[C@H](C)[C@H](N)C1=N[C@H](C(=O)N[C@@H](CC(C)C)C(=O)N[C@H](CCC(=O)O)C(=O)N[C@H](C(=O)N[C@H]2CCCCNC(=O)[C@H](CC(N)=O)NC(=O)[C@@H](CC(=O)O)NC(=O)[C@H](Cc3cnc[nH]3)NC(=O)[C@@H](Cc3ccccc3)NC(=O)[C@H]([C@@H](C)CC)NC(=O)[C@@H](CCCN)NC2=O)[C@@H](C)CC)CS1 [BACITRACIN] ({Ileψ(thiazoline)Cys}-L[dE]IK[dOrn]I[dF]H[dD]N; lactam 4-C)", "Not Active"],
  ["C[C@]12CCC(=O)C=C1CC[C@@H]1[C@@H]2C(=O)C[C@@]2(C)[C@H]1CC[C@]2(O)C(=O)CO", "Not Active"]
]}

* * *

- Assay Overview: DRUGMATRIX: Phosphodiesterase PDE3 enzyme inhibition (substrate: [3H]cAMP + cAMP)
- Format: tissue-based, Homo sapiens
- Condition Parameters: platelet; Not Active = under 50% inhibition at 10 µM

{"columns": ["Molecule", "Ki"],
 "data": [
  ["CC(=O)O[C@]1(C(C)=O)CC[C@H]2[C@@H]3C=C(Cl)C4=CC(=O)CC[C@]4(C)[C@H]3CC[C@@]21C [CHLORMADINONE ACETATE]", "Not Active"],
  ["COc1c(N2CCNC(C)C2)c(F)cc2c(=O)c(C(=O)O)cn(C3CC3)c12 (centres undefined)", "Not Active"],
  ["COc1cc(C(=O)NC2CCCNC2)cc(OC)c1OC (centres undefined) [TROXIPIDE]", "Not Active"],
  ["CC1(C)S[C@@H]2[C@H](NC(=O)[C@H](NC(=O)N3CCNC3=O)c3ccccc3)C(=O)N2[C@H]1C(=O)O", "Not Active"]
]}

* * *

- Target Entity: Receptor tyrosine-protein kinase erbB-2 (Homo sapiens, UniProt P04626); further: in other assays of this panel Not Active means under 50% inhibition at 10 µM;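 further: inhibition of HER2 kinase enzyme activity, measured with Poly(Glu:Tyr) as the phosphorylation substrate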
- Sequence (P04626 whole entry): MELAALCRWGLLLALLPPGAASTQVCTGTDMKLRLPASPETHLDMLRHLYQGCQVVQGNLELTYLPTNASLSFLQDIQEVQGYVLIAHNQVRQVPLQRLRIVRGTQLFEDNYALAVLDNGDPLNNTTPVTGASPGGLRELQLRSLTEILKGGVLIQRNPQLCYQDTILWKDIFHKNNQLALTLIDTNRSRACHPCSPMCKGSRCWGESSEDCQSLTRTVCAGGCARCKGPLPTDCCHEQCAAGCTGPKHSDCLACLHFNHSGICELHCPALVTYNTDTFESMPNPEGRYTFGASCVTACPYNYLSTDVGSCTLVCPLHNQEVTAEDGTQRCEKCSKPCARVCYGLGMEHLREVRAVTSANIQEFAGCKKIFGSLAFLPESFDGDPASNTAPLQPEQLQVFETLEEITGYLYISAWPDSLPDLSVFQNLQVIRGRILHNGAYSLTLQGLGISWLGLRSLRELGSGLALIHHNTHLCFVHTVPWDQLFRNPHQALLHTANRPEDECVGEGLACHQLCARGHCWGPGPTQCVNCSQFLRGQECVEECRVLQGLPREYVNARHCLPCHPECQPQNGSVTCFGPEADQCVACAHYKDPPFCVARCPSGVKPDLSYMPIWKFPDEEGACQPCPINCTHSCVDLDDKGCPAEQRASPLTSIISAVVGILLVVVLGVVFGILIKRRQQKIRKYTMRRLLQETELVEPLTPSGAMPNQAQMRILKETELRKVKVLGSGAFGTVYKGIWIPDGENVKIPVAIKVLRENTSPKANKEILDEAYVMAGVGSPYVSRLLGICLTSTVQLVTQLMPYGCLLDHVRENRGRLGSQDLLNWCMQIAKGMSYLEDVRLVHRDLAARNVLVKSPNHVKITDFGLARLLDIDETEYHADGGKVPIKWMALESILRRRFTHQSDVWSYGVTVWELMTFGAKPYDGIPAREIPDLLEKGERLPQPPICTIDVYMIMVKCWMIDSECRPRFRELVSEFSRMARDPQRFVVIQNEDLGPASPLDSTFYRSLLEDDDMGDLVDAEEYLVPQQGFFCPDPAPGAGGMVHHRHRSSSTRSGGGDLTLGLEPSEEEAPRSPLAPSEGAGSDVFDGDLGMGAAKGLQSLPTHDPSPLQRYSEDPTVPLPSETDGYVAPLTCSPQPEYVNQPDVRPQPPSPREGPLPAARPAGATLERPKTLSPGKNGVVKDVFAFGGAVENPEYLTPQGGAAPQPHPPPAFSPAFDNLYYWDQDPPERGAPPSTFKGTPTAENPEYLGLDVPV
- Assay Overview: biochemical
- Type: cell-based, Insect cells
- Condition Parameters: read-out: IC50
We label by threshold. Values of IC50 strictly beneath 40 µM are MET. Values of 40 µM and up are NOT MET.

{"columns": ["Structure Smiles", "Assigned Class"],
 "data": [
  ["Oc1c(Cl)cc(Cl)cc1Sc1cc(Cl)cc(Cl)c1O", "MET"],
  ["Oc1c(I)cc(I)c2cccnc12", "MET"],
  ["COc1ccc(CCN2CCC(Nc3nc4ccccc4n3Cc3ccc(F)cc3)CC2)cc1", "MET"],
  ["Clc1ccccc1C(c1ccccc1)(c1ccccc1)n1ccnc1", "NOT MET"],
  ["O=C1c2c(O)ccc(O)c2C(=O)c2c(NCCNCCO)ccc(NCCNCCO)c21", "MET"]
]}

Now consider a different molecule.
API: query returns whether the molecule falls strictly under 40 µM in IC50. Query: c1ccc2c(c1)cc1ccc3cccc4ccc2c1c34
NOT MET

* * *

- Target Entity: Alpha-1A adrenergic receptor (Rattus norvegicus, UniProt P43140)
- Sequence (P43140 whole entry): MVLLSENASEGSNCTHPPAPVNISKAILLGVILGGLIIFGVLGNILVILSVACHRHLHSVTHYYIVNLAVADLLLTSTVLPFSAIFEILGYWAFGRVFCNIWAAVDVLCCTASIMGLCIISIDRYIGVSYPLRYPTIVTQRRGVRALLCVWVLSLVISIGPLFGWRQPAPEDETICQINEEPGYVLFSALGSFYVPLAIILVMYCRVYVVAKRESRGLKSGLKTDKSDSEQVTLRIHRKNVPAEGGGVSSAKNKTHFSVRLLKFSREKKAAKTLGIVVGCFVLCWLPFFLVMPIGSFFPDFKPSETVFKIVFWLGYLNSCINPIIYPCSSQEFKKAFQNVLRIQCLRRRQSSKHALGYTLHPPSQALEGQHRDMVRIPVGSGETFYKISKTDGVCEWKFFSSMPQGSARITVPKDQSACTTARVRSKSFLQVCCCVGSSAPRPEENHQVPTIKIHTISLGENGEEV
- Assay Overview: DRUGMATRIX: Alpha-1A adrenergic receptor radioligand binding (ligand: prazosin)
- Assay type: cell membranes, Wistar, Submaxillary gland, Membrane
- Condition Parameters: Not Active = under 50% inhibition at 10 µM; read-out: IC50
pIC50: −log10 of the molar value.
Lab note: compare pIC50 against 6. Equal or greater, write YES. Smaller, write NO.

Illustrative cases are given below, each with its answer.
{"columns": ["Compound", "Assigned Class"],
 "data": [
  ["Clc1ccccc1C(c1ccccc1)(c1ccccc1)n1ccnc1", "NO"],
  ["CN(C)CCCC1(c2ccc(F)cc2)OCc2cc(C#N)ccc21 (stereo not drawn)", "NO"],
  ["COc1ccc(CCN2CCC(Nc3nc4ccccc4n3Cc3ccc(F)cc3)CC2)cc1", "YES"],
  ["CN1C[C@H](C(=O)N[C@]2(C)O[C@@]3(O)[C@@H]4CCCN4C(=O)[C@H](Cc4ccccc4)N3C2=O)C=C2c3cccc4[nH]cc(c34)C[C@H]21", "YES"],
  ["CNCCC=C1c2ccccc2CCc2ccccc21", "YES"]
]}

// inclusive: pIC50 at least 6? input: CC(CCc1ccccc1)NCC(O)c1ccc(O)c(C(N)=O)c1 (stereo not drawn)
YES

// inclusive: pIC50 at least 6? input: CO[C@@H]1[C@@H](O[C@@H]2O[C@H](C)[C@@H](O[C@H]3C[C@@](C)(O)[C@@H](OC(=O)CC(C)C)[C@H](C)O3)[C@H](N(C)C)[C@H]2O)[C@@H](CC=O)C[C@@H](C)[C@@H](O)/C=C/C=C/C[C@@H](C)OC(=O)C[C@H]1O
NO

// inclusive: pIC50 at least 6? input: CSc1ccc2c(c1)N(CCC1CCCCN1C)c1ccccc1S2 (stereo not drawn)
YES
